The measurements presented in this section are drawn from paper PMC10650486.

# METHOD SUMMARY: Thermogravimetric analysis (TGA), thermal stability
# Type: physicochemical
# EXPERIMENTAL SETUP: 10 °C min^−1, N2 atmosphere
Classification field: enter 1.0 for Tonset values not below 300 °C, 0.0 for values below it.

Kindly determine if Tonset recorded for O=C(O)c1cn(C2CC2)c2cc(N3CCNCC3)c(F)cc2c1=O.O=S(=O)(NS(=O)(=O)C(F)(F)C(F)(F)F)C(F)(F)C(F)(F)F [[Cip][BETI]] is above or exactly 300 °C.
0.0

// same read-out, input: COc1c(N2C[C@@H]3CCC[NH2+][C@@H]3C2)c(F)cc2c(=O)c(C(=O)O)cn(C3CC3)c12.c1ccc([B-](c2ccccc2)(c2ccccc2)c2ccccc2)cc1 [[Mox][TPB]]
0.0

// same read-out, input: O=C(O)c1cn(C2CC2)c2cc(N3CCNCC3)c(F)cc2c1=O.O=S(=O)(NS(=O)(=O)C(F)(F)F)C(F)(F)F [[Cip][NTF2]]
0.0

// same read-out, input: COc1c(N2C[C@@H]3CCCN[C@@H]3C2)c(F)cc2c(=O)c(C(=O)O)cn(C3CC3)c12.C[C@H](CCC(=O)O)[C@H]1CC[C@H]2[C@@H]3CC[C@@H]4C[C@H](O)CC[C@]4(C)[C@H]3C[C@H](O)[C@]12C [[Mox][Dxc]]
0.0

// same read-out, input: COc1c(N2C[C@@H]3CCCN[C@@H]3C2)c(F)cc2c(=O)c(C(=O)O)cn(C3CC3)c12.O=S(=O)(NS(=O)(=O)C(F)(F)F)C(F)(F)F [[Mox][NTF2]]
1.0

// same read-out, input: CCCCC(CC)COC(=O)CC(C(=O)OCC(CC)CCCC)S(=O)(=O)O.COc1c(N2C[C@@H]3CCCN[C@@H]3C2)c(F)cc2c(=O)c(C(=O)O)cn(C3CC3)c12 [[Mox][Doc]]
0.0

// same read-out, input: C[C@H](CCC(=O)O)[C@H]1CC[C@H]2[C@@H]3CC[C@@H]4C[C@H](O)CC[C@]4(C)[C@H]3C[C@H](O)[C@]12C.O=C(O)c1cn(C2CC2)c2cc(N3CCNCC3)c(F)cc2c1=O [[Cip][Dxc]]
1.0

// same read-out, input: O=C(O)c1cn(C2CC2)c2cc(N3CC[NH2+]CC3)c(F)cc2c1=O.c1ccc([B-](c2ccccc2)(c2ccccc2)c2ccccc2)cc1 [[Cip][TPB]]
0.0

// same read-out, input: CCCCC(CC)COC(=O)CC(C(=O)OCC(CC)CCCC)S(=O)(=O)O.O=C(O)c1cn(C2CC2)c2cc(N3CCNCC3)c(F)cc2c1=O (stereo not shown) [[Cip][Doc]]
0.0

---

So I've got a bunch of molecules here, and I need their Tpeak values.
# METHOD SUMMARY: Thermogravimetric analysis (TGA), thermal stability
# Type: physicochemical
# EXPERIMENTAL SETUP: temperature at highest degradation rate, 10 °C min^−1, N2 atmosphere
Reply with the number, then its unit.

Return reported Tpeak; argument: O=C(O)c1cn(C2CC2)c2cc(N3CCNCC3)c(F)cc2c1=O.O=S(=O)(NS(=O)(=O)C(F)(F)C(F)(F)F)C(F)(F)C(F)(F)F [[Cip][BETI]]
294.04 °C

// same read-out, input: O=C(O)c1cn(C2CC2)c2cc(N3CCNCC3)c(F)cc2c1=O.O=S(=O)(NS(=O)(=O)C(F)(F)F)C(F)(F)F [[Cip][NTF2]]
295.18 °C

// same read-out, input: O=C(O)c1cn(C2CC2)c2cc(N3CC[NH2+]CC3)c(F)cc2c1=O.c1ccc([B-](c2ccccc2)(c2ccccc2)c2ccccc2)cc1 [[Cip][TPB]]
122.95 °C

// same read-out, input: C[C@H](CCC(=O)O)[C@H]1CC[C@H]2[C@@H]3CC[C@@H]4C[C@H](O)CC[C@]4(C)[C@H]3C[C@H](O)[C@]12C.O=C(O)c1cn(C2CC2)c2cc(N3CCNCC3)c(F)cc2c1=O [[Cip][Dxc]]
332.30 °C

// same read-out, input: CCCCC(CC)COC(=O)CC(C(=O)OCC(CC)CCCC)S(=O)(=O)O.O=C(O)c1cn(C2CC2)c2cc(N3CCNCC3)c(F)cc2c1=O (stereo not drawn) [[Cip][Doc]]
286.64 °C

// same read-out, input: COc1c(N2C[C@@H]3CCC[NH2+][C@@H]3C2)c(F)cc2c(=O)c(C(=O)O)cn(C3CC3)c12.c1ccc([B-](c2ccccc2)(c2ccccc2)c2ccccc2)cc1 [[Mox][TPB]]
177.21 °C

---

So I've got a bunch of molecules here, and I need their Residue at 500 °C values.
# METHOD SUMMARY: Thermogravimetric analysis (TGA), thermal stability
# Format: physicochemical
# EXPERIMENTAL SETUP: mass residue remaining at 500 °C
Reply with the number, then its unit.

Return reported Residue at 500 °C; argument: O=C(O)c1cn(C2CC2)c2cc(N3CC[NH2+]CC3)c(F)cc2c1=O.c1ccc([B-](c2ccccc2)(c2ccccc2)c2ccccc2)cc1 [[Cip][TPB]]
36.93%

// same read-out, input: O=C(O)c1cn(C2CC2)c2cc(N3CCNCC3)c(F)cc2c1=O.O=S(=O)(NS(=O)(=O)C(F)(F)F)C(F)(F)F [[Cip][NTF2]]
39.88%

// same read-out, input: CCCCC(CC)COC(=O)CC(C(=O)OCC(CC)CCCC)S(=O)(=O)O.COc1c(N2C[C@@H]3CCCN[C@@H]3C2)c(F)cc2c(=O)c(C(=O)O)cn(C3CC3)c12 [[Mox][Doc]]
33.55%

// same read-out, input: O=C(O)c1cn(C2CC2)c2cc(N3CCNCC3)c(F)cc2c1=O.O=S(=O)(NS(=O)(=O)C(F)(F)C(F)(F)F)C(F)(F)C(F)(F)F [[Cip][BETI]]
35.43%

// same read-out, input: C[C@H](CCC(=O)O)[C@H]1CC[C@H]2[C@@H]3CC[C@@H]4C[C@H](O)CC[C@]4(C)[C@H]3C[C@H](O)[C@]12C.O=C(O)c1cn(C2CC2)c2cc(N3CCNCC3)c(F)cc2c1=O [[Cip][Dxc]]
19.75%

// same read-out, input: COc1c(N2C[C@@H]3CCCN[C@@H]3C2)c(F)cc2c(=O)c(C(=O)O)cn(C3CC3)c12.O=S(=O)(NS(=O)(=O)C(F)(F)C(F)(F)F)C(F)(F)C(F)(F)F [[Mox][BETI]]
32.31%
